tested on: Plasmodium falciparum; test: GSK_TCMDC: Inhibition of Plasmodium falciparum 3D7 in whole red blood cells, using parasite LDH activity as an index of growth. Test compounds present at 2uM; format: functional
MEASURED QUANTITY: Inhibition (%)
Report the value in % with no unit label.

Below are worked cases with known answers.
* CN1CC=C(c2c[nH]c3ccc(OC(=O)c4ccccc4)cc23)C1 | 96
* C=C[C@H]1CN2CC[C@H]1C[C@H]2[C@H](O)c1ccnc2ccccc12 | 100
* COc1ccc2[nH]cc(C3=CCN(Cc4ccccc4)CC3)c2c1 | 90
* CCC1CN2CCc3cc(OC)c(OC)cc3C2CC1CC1NCCc2c1[nH]c1ccc(O)cc21 (centres undefined) | 99
* O=C(/C=C/c1ccc(Cl)c(Cl)c1)N1CCC(CN2CCC(c3c(-c4ccc(F)cc4)[nH]c4ccccc34)CC2)CC1 | 100

I have this compound here, O=C(/C=C/c1ccc(Cl)c(Cl)c1)NCC1CCCC(CN2CCC(c3c[nH]c4ccccc34)CC2)C1 (centres undefined) , and I need its recorded Inhibition.
98

I have this compound here, Cc1ccc(CC(C)NC[C@H](O)c2cccc(Cl)c2)cc1.Cl (some centres undefined) , and I need its recorded Inhibition.
96

I have this compound here, COCCNCc1ccc(-c2ccc(CN(C(=O)Nc3ccccc3)C3CCN(Cc4ccccc4)CC3)cc2)cc1.O=C(O)C(F)(F)F , and I need its recorded Inhibition.
98

I have this compound here, O=C1c2ccccc2CCC1CCN1CC=C(c2c[nH]c3ccccc23)CC1 (centres undefined) , and I need its recorded Inhibition.
89
